# System: MS2 coat protein
# experimental-protocol: apparent KD of MS2 coat protein; designed switch direction (-1 OFF switch, 1 ON switch): -1; higher = weaker reporter binding
# assay-conditions: input ligand: microRNA oligo, concentration not stated
metric-name: apparent KD of MS2 coat protein (nM)
Numbers only, in nM.

AGUAGUUACGUAGGAUAUGAGGAUCACCCAUAGAAGGAUAUCGAAAGAGAAGGUCUGAGGAUUACCCAGAAGGACGUGACUACA [pwkr exNG2 2xF5 2xFMN.9] (Eterna round: R96, puzzle: Exclusion NG 2)	113
AUCAGCUCGUGAGGAUAUGCACAUGAGGAUCACCCAUGUAAGAUCAAGCUGCUUCGGCAGCAAGUGCAGAAGGCACGAGCUGAU [ENG2/9-A2] (Eterna round: R96, puzzle: Exclusion NG 2)	132

# evaluate next
// apparent KD of MS2 coat protein lookup, sequence = ACAUGAGGAUCACCCAUGUAAUCAUAAUGGCUGAUGUAGAGUCAGGAUAUGUGUGGCUUUCUAUCGCAGAAGGGACAAGACUGG [Deportation 34 - Jieux - Exclusion NG 3] (Eterna round: R96, puzzle: Exclusion NG 3) , result: 26.4

###

# Tested on: MS2 coat protein
# experimental-protocol: apparent KD of MS2 coat protein; designed switch direction (-1 OFF switch, 1 ON switch): 1; higher = weaker reporter binding
# assay-conditions: input ligand: FMN 200 uM
metric-name: apparent KD of MS2 coat protein
Answer format: value, then unit.

GCUACCAUUGAAGCCAACAUGAGGAUCACCCAUGUAUGUUGGUAGGAUAUCGUUUGCAAAGCAAACGAGAAGGGCUAAGGUAGC [Mat - Same State NG 3 - JL Mod - D79] (Eterna round: R96, puzzle: Same State NG 3)	0.0835 µM
AUCAUUUAUGCAGGAUAUGAUUAACAUGAGGAUCACCCAUGUGGUGUUGUGAGUAAGGAGAGUGAUCAGAAGGGCAUUUUUUUU [JMF's solution 72] (Eterna round: R96, puzzle: Same State NG 2)	0.476 µM
ACAUGAGACGUAGGAUAUAUUGUACCUACAUGUGACAUGAGGAUCACCCAUGUGGUAAGUAUGACAUAGAAGGACGAGAUAUGU [Equivalance 94 - Jieux - Same State NG 2] (Eterna round: R96, puzzle: Same State NG 2)	0.0486 µM
GGAAAGAGGUCAGGAUAUGAAUGGUUGGGACAUGAGGAUCACCCAUGUAAUAGAAGAAAUCUACAUUAGAAGGGACAAGGAAGG [AK SSNG2-V2-5.1] (Eterna round: R96, puzzle: Same State NG 2)	0.129 µM
CCGAUUUAUGGAGGAUAUGGAGCCUUAUUGGCUCCAGAAGGUCAAUAACAUGAGGAUCACCCAUGUACGGCGGUCAAUAGACCG [Eli NG1ss - 70] (Eterna round: R96, puzzle: Same State NG 1)	0.0248 µM

Each of the following entries comes with a recorded value; kindly state apparent KD of MS2 coat protein for each.
1. UUAAUGAUGAUAGGAUAUACAUGAGGAAUUCUCGUAGAAGGAUCAUGACAUGAGGAUCACCCAUGUAUCGCUCCGUAGAGCGUA [JL SSNG1 1.14] (Eterna round: R96, puzzle: Same State NG 1)
2. GGUAAGAACUAAGGAUAUUGAAUACAUAUGUUUAACAUGAGGAUCACCCAUGUGGGUUGCGGUGUCGAGAAGGUAGAAUAAUAG [Mat - same State NG 2 - JL mod - D102] (Eterna round: R96, puzzle: Same State NG 2)
3. GGUGUACAUGAGGAUCACCCAUGUCGACCGCUCACAGGAUAUUUAAUACAAACUGGUAGCGGAGAAGGGUGAGGAA [Oresbeve] (Eterna round: R96, puzzle: Same State 1)
4. GUUGAGAAAUAAGGAUAUACAUGGAAGACACAUGAGGAUCACCCAUGUGGGAGGGAAACCAGGAGGUAGAAGGUAUUGGGAAAC [AK SSNG2-V2-23] (Eterna round: R96, puzzle: Same State NG 2)
5. CUGAGAAGUCAAGGAUAUCACGUCGAUUAGACGUGAGAAGGUGAUCAGUACAUGAGGAUCACCCAUGUGUUACAUGGAACUCAG [Brourd's SSNG1/1-A2 mod 8] (Eterna round: R96, puzzle: Same State NG 1)
6. GGAGCCGGCCUAGGAUAUUUCAUAAAAAAACAUGAGGAUCACCCAUGUAGGCCAGAAGGCCUUGGGAAGAAGGAGGUCGGCUCC [Loop Effect - Control] (Eterna round: R96, puzzle: Same State NG 2)

Result:
0.934 µM
0.204 µM
0.523 µM
0.0331 µM
1.66 µM
0.00894 µM

###

# System: MS2 coat protein
# experimental-protocol: apparent KD of MS2 coat protein; designed switch direction (-1 OFF switch, 1 ON switch): 1; higher = weaker reporter binding
# assay-conditions: input ligand: microRNA oligo, concentration not stated
metric-name: apparent KD of MS2 coat protein
Answer format: value, then unit.

AAGAUGCUCGUAGGAUAUUGGAAAGGAAGUGUACAAGAAGGACGGUGUCACAUGAGGAUCACCCAUGUUACAGUCUAAUGACUG [PowerStrip SSNG 1.1] (Eterna round: R96, puzzle: Same State NG 1)	53.5 nM
AGGCUCAGACGAGGAUAUACGUGGUCACAUGAGGAUCACCCAUGUCUCGAGCUUCGGCUCGAGGCGUAGAAGGCGUCUGAGCCA [SSNG2/6-A1] (Eterna round: R96, puzzle: Same State NG 2)	201 nM
ACAUGAAAUAGAGGAUAUUUUGUACCUACAUGUGACAUGAGGAUCACCCAUGUGGUAAGUAUGAGAAAGAAGGCUAAGAUAUGU [Equivalence 12 - Jieux - Same State NG 2] (Eterna round: R96, puzzle: Same State NG 2)	30.3 nM
AGGCUCGUGCUAGGAUAUCUAGGAUAUGGACGAGGAUUACCCGAGGAGCAUUAGCCCACCAGAGGAGAGAAGGAGCUACAUGCG [pwkr ssNG2 2F5 2FMN.12] (Eterna round: R96, puzzle: Same State NG 2)	509 nM
GCUAGAAUUAAUGCUAACAUGAGGAUCACCCAUGUAUGUUGGCAGGAUAUCGUUUGCAAAGCAAACGAGAAGGGCCAUACUAGC [Mat - Same State NG 3 - JL Mod - D25] (Eterna round: R96, puzzle: Same State NG 3)	27.3 nM

Each of the following entries comes with a recorded value; kindly state apparent KD of MS2 coat protein for each.
1. ACAUGAGACGUAGGAUAUAUUGUACCUACAUGUGACAUGAGGAUCACCCAUGUGGUAAGUAUGACAUAGAAGGACGAGAUAUGU [Equivalance 94 - Jieux - Same State NG 2] (Eterna round: R96, puzzle: Same State NG 2)
2. GUUACAUGAGGAUCACCCAUGUAUGUGUGGGAGUAAGUGUCUUAGGAUAUCUAUGAUUUAACUUAAGAGAAGGAAGAUUGUUGU [JMF's solution 81] (Eterna round: R96, puzzle: Same State NG 3)
3. GUGGUCAGACAUGAGGAUCACCCAUGUGGAAUAAAUAAGGAGAAGGAUAUCUAAUAUAGGAUAUAAGAGAAGGUUUGGUUGGUG (Eterna round: R96, puzzle: Same State NG 3)
4. GCGAAGAGGUAAGGAUAUGCAUGGCGUAGACAUGAGGAUCACCCAUGUAGGAGACGAAUUAGAAGGGAGAAGGUACCAGGACGC [AK SSNG2-V2-17.1] (Eterna round: R96, puzzle: Same State NG 2)

Result:
1: 49.7 nM; 2: 72.9 nM; 3: 63.2 nM; 4: 699 nM

###

# Tested on: MS2 coat protein
# experimental-protocol: apparent KD of MS2 coat protein; designed switch direction (-1 OFF switch, 1 ON switch): -1; higher = weaker reporter binding
# assay-conditions: input ligand: FMN 200 uM
Could you please report measured apparent KD of MS2 coat protein for the items listed next?
Numbers only, in nM.

GGAACUGGAGGAUAUACAUGAGGAUCACCCAUGUAUAGAUAUGGUUAUUAGCCUCAUAGUAGAAGGUUAGUGGC [EX3 C.4] (Eterna round: R97, puzzle: Exclusion 3)	21.6

Each of the following entries comes with a recorded value; kindly state apparent KD of MS2 coat protein for each.
1. UUUAAGUCAGGAUAUACAUGAGGAUCACCCAUGUAAAAUUUUAAUUUAAUUUUAAGGUGUAGAAGGGACAAUUU [Ex3 #3] (Eterna round: R97, puzzle: Exclusion 3)
2. AAUUUACAUGAGGAUCACCCAUGUGAGGAUAUGGUUUCGCUGGCCGUAGCCAGUGGAACCAGAAGGCGCAUGAU [Mat - Exclusion 1 - JL Mod - D12] (Eterna round: R97, puzzle: Exclusion 1)
3. AAUAAAGUAGGAUAUACAUGAGGAUCACCCAUGUCCCACCCGUUACCUAUGACCAUAUGUAGAAGGACUAAUAA [Exy#3] (Eterna round: R97, puzzle: Exclusion 3)
4. ACAUGCCGCGCAGGAUAUGGGACACAUGAGGAUCACCCAUGUGGUUUCAUGUCUAACCAAGCGUCCCAGAAGGGCGUGAACAUG [Ex NG2 #29] (Eterna round: R96, puzzle: Exclusion NG 2)

Result:
29.5
283
80
30.9

Each of the following entries comes with a recorded value; kindly state apparent KD of MS2 coat protein for each.
1. UUAAUACAUGUAGGAUAUGCGUGGCGAAGCUAUGCAGAAGGACAUGAGGAUCACCCAUGUCUCUGCGUCCGCGUACGGAUGCAA [JL Eng1 1.21 mod 5] (Eterna round: R96, puzzle: Exclusion NG 1)
2. AACAGAUGAGGAUAUACACGAGGAGUGAUACCGUAUGCCAGACAUGAGGAUCACCCAUGUAGAAGGCAUAAUAG [Celeated] (Eterna round: R97, puzzle: Exclusion 2)
3. AGGACGGCAGGAUAUACAUGAGGAUCACCCAUGUCUGGUGUCGAGCUAAUUGUGCAUAGUAGAAGGGUCGCUCC [Eternabot (L1) Solution 39] (Eterna round: R97, puzzle: Exclusion 3)
4. AAUUUUUAUGUAAGGAUAUGGGUUUGGAAACGGGCUUAGAAGGUACAUGAGGAUCACCCAUGUAUAAUGUGCGU [-19.9, -19.7 kcal, 30% A] (Eterna round: R97, puzzle: Brourd's mod of Exclusion 4)
5. CCUCUACAUGAGGAUCACCCAUGUGAGGAUAUGCGAGGCGCACUCGAUGAGCGCGCCGGUAGAAGGCAUGUGGU [Raraveries] (Eterna round: R96, puzzle: Exclusion 1)
6. UUUUAAUAUGAAGGAUAUACUUAACAUGAGGAUCACCCAUGUGGUGUUGUGAGUGAGUGAGUUUAGUAGAAGGUCAAUUAUUUU [JMF's solution 25] (Eterna round: R96, puzzle: Exclusion NG 2)

Result:
13.9
18.9
204
19
67
1020

Each of the following entries comes with a recorded value; kindly state apparent KD of MS2 coat protein for each.
1. GACCUCCCUGUAAGGAUAUCCAUGCAUCAAAGCAAGGAGAAGGUACAUGAGGAUCACCCAUGUCACCCGCGUUA (Eterna round: R97, puzzle: Brourd's mod of Exclusion 4)
2. UUGAAGUCAUCAGGAUAUAGUUUUAAUGUCAUGCUUAAGUUCUUACAUGAGGAUCACCCAUGUCGCUAGAAGGGAUUAUAGAUU [JR_ExcNG2_Sub078] (Eterna round: R96, puzzle: Exclusion NG 2)

Result:
1. 23.1
2. 66.8

// data source = the supplement of paper PMC9170038
